Please respond with reported RP-LC retention time for every item in the list.
- Assay protocol: gradient 5% acetonitrile 3 min, to 50% in 2 min, to 85% in 15 min, held 3 min, 100 µL/min
- Test context: column: Zorbax Extend-C18 2.1 x 50 mm; eluents: water / acetonitrile, 0.1% formic acid
One number for each entry, in s.

>>> obs_value("CC(C)(C)c1ccc(S(=O)(=O)N2CCc3nc[nH]c3C2)cc1")
683
>>> obs_value("Cc1cc(Nc2nc3ccncc3n(C(C)C)c2=O)ccc1F")
679
>>> obs_value("CCC(=O)N1CCc2cc(N3CC(C(=O)NCc4cccs4)CC3=O)ccc21 (centres undefined)")
695

Query: I have this compound here, Cc1cc(C(=O)NCCn2ncc3c(=O)n(Cc4ccc(F)cc4)cnc32)c(C)o1 , and I need its recorded RP-LC retention time.
Result: 705

Where these numbers come from: the METLIN SMRT retention time set (Domingo-Almenara et al. 2019)
